src = PubChem BioAssay AID1963853

System: 266295-075-R-J1-PDC spheroid viability;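 also: spheroids exposed to compounds for seven days before readout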
assay info: Anticancer human tumor 266295-075-R-J1-PDC patient-derived head and neck squamous carcinoma cell line growth inhibition [POLQ]
stated conditions: second compound 0.1 µM; first compound 0.1 µM; stronger effect = lower value; spheroids with HUVEC and MSC
Protocol: Multicellular complex tumor spheroid response to Polymerase (POL) inhibitors (novobiocin, ART-558, RP6685) in combination with a variety of drugs and investigational agents in selected tumor cell lines The POL inhibitors (novobiocin, ART-558, and RP6685) were evaluated both individually and in combination with standard of care and investigational anticancer small molecules within a complex spheroid model of solid tumors. . […]

compound	viability, T/C [%]
COc1cccc2c1C(=O)c1c(O)c3c(c(O)c1C2=O)CC(O)(C(=O)CO)CC3OC1CC(N)C(O)C(C)O1 (stereo unspecified) + Cc1cccc(N(C)C(=O)C2C(O)CCN2c2nc(C)cc(C(F)(F)F)c2C#N)c1	81.9
COc1cc(C2c3cc4c(cc3C(OC3OC5COC(C)OC5C(O)C3O)C3COC(=O)C23)OCO4)cc(OC)c1O (stereo unspecified) + COC1C(OC(N)=O)C(O)C(Oc2ccc3c(O)c(NC(=O)c4ccc(O)c(CC=C(C)C)c4)c(=O)oc3c2C)OC1(C)C	105
COc1cc2cc(C(=O)CCC(=O)O)sc2cc1OC + COC1C(OC(N)=O)C(O)C(Oc2ccc3c(O)c(NC(=O)c4ccc(O)c(CC=C(C)C)c4)c(=O)oc3c2C)OC1(C)C	90.1
Nc1ccn(C2OC(CO)C(O)C2(F)F)c(=O)n1 (stereo unspecified) + Nc1ccc(C#CCN(C(=O)Cc2ncc(C(F)(F)F)cc2C(F)(F)F)c2ccc(F)cc2)nn1	98.8
Cn1ncnc1[C@H]1c2n[nH]c(=O)c3cc(F)cc(c23)N[C@@H]1c1ccc(F)cc1 + Cc1cccc(N(C)C(=O)C2C(O)CCN2c2nc(C)cc(C(F)(F)F)c2C#N)c1	87.9
CCc1cc2c(N3CCc4c(cc(Cn5ccnc5)cc4-c4cn(C)nc4C(F)(F)F)C3=O)cc(C)nc2c(OC)n1 + Nc1ccc(C#CCN(C(=O)Cc2ncc(C(F)(F)F)cc2C(F)(F)F)c2ccc(F)cc2)nn1	113
O=C(Nc1ccc(O)c(NS(=O)(=O)c2ccc(F)cc2)c1)c1ccc(-c2ccccc2)cc1 + Nc1ccc(C#CCN(C(=O)Cc2ncc(C(F)(F)F)cc2C(F)(F)F)c2ccc(F)cc2)nn1	123
CNCc1ccc(-c2[nH]c3cc(F)cc4c3c2CCNC4=O)cc1 + Nc1ccc(C#CCN(C(=O)Cc2ncc(C(F)(F)F)cc2C(F)(F)F)c2ccc(F)cc2)nn1	97
Cn1ncnc1[C@H]1c2n[nH]c(=O)c3cc(F)cc(c23)N[C@@H]1c1ccc(F)cc1 + COC1C(OC(N)=O)C(O)C(Oc2ccc3c(O)c(NC(=O)c4ccc(O)c(CC=C(C)C)c4)c(=O)oc3c2C)OC1(C)C	79.9
Nc1ccn(C2OC(CO)C(O)C2(F)F)c(=O)n1 (stereo unspecified) + Cc1cccc(N(C)C(=O)C2C(O)CCN2c2nc(C)cc(C(F)(F)F)c2C#N)c1	93
COc1cccc(OCCCN)c1-c1cc(Nc2cnc(C#N)cn2)n[nH]1 + Cc1cccc(N(C)C(=O)C2C(O)CCN2c2nc(C)cc(C(F)(F)F)c2C#N)c1	76.3
CC1COCCN1c1cc(C2(S(C)(=N)=O)CC2)nc(-c2ccnc3[nH]ccc23)n1 (stereo unspecified) + COC1C(OC(N)=O)C(O)C(Oc2ccc3c(O)c(NC(=O)c4ccc(O)c(CC=C(C)C)c4)c(=O)oc3c2C)OC1(C)C	87.9
COc1ccc([C@@H](O)c2cc(-c3ncnc4cc(N5CCOCC5)ccc34)c(F)cc2Cl)nn1 + Cc1cccc(N(C)C(=O)C2C(O)CCN2c2nc(C)cc(C(F)(F)F)c2C#N)c1	86.5
CCc1c2c(nc3ccc(O)cc13)-c1cc3c(c(=O)n1C2)COC(=O)[C@]3(O)CC + Nc1ccc(C#CCN(C(=O)Cc2ncc(C(F)(F)F)cc2C(F)(F)F)c2ccc(F)cc2)nn1	102
CNCc1ccc(-c2[nH]c3cc(F)cc4c3c2CCNC4=O)cc1 + Cc1cccc(N(C)C(=O)C2C(O)CCN2c2nc(C)cc(C(F)(F)F)c2C#N)c1	99.8
CC(C)n1c(=O)n(C)c2cnc3cc(F)c(-c4ccc(OCCCN5CCCCC5)nc4)cc3c21 + COC1C(OC(N)=O)C(O)C(Oc2ccc3c(O)c(NC(=O)c4ccc(O)c(CC=C(C)C)c4)c(=O)oc3c2C)OC1(C)C	95.5
C=CC(=O)N1CCN(c2nc(=O)n(-c3c(C)ccnc3C(C)C)c3nc(-c4c(O)cccc4F)c(F)cc23)C(C)C1 (stereo unspecified) + COC1C(OC(N)=O)C(O)C(Oc2ccc3c(O)c(NC(=O)c4ccc(O)c(CC=C(C)C)c4)c(=O)oc3c2C)OC1(C)C	90.6
CCc1c2c(nc3ccc(O)cc13)-c1cc3c(c(=O)n1C2)COC(=O)[C@]3(O)CC + COC1C(OC(N)=O)C(O)C(Oc2ccc3c(O)c(NC(=O)c4ccc(O)c(CC=C(C)C)c4)c(=O)oc3c2C)OC1(C)C	103
CCCS(=O)(=O)Nc1ccc(F)c(C(=O)c2c[nH]c3ncc(-c4ccc(Cl)cc4)cc23)c1F + Nc1ccc(C#CCN(C(=O)Cc2ncc(C(F)(F)F)cc2C(F)(F)F)c2ccc(F)cc2)nn1	105
Nc1ccn(C2OC(CO)C(O)C2(F)F)c(=O)n1 (stereo unspecified) + COC1C(OC(N)=O)C(O)C(Oc2ccc3c(O)c(NC(=O)c4ccc(O)c(CC=C(C)C)c4)c(=O)oc3c2C)OC1(C)C	91.9
CC1COCCN1c1cc(C2(O)CC3CCC(C2)O3)c2cnn(-c3ccn[nH]3)c2n1 (stereo unspecified) + Nc1ccc(C#CCN(C(=O)Cc2ncc(C(F)(F)F)cc2C(F)(F)F)c2ccc(F)cc2)nn1	85.9
